- test_system: EsemOR3 (Eriocrania semipurpurella, UniProt A0A2H4NT95)
- Sequence (A0A2H4NT95 1-441): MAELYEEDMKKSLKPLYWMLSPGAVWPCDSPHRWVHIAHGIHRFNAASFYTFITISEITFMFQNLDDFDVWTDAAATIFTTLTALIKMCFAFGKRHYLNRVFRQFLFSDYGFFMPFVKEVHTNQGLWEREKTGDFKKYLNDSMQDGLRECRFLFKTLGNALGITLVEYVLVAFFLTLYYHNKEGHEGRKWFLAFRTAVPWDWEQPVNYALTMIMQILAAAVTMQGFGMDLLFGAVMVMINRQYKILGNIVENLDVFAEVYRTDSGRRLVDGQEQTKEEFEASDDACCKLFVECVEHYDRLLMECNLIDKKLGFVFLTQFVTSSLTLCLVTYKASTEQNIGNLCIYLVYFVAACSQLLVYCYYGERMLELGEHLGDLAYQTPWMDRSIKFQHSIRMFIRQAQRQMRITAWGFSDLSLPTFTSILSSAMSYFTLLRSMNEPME
- Sequence (A0A2H4NT96 1-482 partner): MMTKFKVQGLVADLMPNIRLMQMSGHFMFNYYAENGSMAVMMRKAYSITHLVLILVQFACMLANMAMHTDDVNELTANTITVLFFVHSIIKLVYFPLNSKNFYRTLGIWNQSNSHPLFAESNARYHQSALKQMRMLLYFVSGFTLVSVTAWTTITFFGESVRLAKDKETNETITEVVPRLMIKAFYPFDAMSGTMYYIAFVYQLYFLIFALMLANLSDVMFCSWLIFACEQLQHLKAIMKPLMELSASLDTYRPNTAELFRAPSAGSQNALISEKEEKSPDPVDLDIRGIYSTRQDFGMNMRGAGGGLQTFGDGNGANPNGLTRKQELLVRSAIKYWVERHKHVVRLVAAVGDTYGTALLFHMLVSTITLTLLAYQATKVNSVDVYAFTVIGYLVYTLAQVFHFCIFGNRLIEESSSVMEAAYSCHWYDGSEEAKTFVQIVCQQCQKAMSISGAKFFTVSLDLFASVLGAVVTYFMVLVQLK
- experiment: Fluorescent calcium assay, HEK293 cells expressing EsemOrco and EsemOR3
- Assay type: cell-based
- condition: induced cells, compounds screened at 30 µM
measure_name: Response of EsemOR3-expressing cells in screening

[[record]]
compound = "CCCCCCC[C@H](C)O [(S)-Nonan-2-ol]"
test_result = "less so"

[[record]]
compound = "CC/C=C\\CCC[C@@H](C)O [(2R, 6Z)-6-nonen-2-ol, (2R,6Z)-6-Nonen-2-ol]"
test_result = "less so"


###

- test_system: EsemOR5 (Eriocrania semipurpurella, UniProt A0A2H4NTA6)
- Sequence (A0A2H4NTA6 1-419): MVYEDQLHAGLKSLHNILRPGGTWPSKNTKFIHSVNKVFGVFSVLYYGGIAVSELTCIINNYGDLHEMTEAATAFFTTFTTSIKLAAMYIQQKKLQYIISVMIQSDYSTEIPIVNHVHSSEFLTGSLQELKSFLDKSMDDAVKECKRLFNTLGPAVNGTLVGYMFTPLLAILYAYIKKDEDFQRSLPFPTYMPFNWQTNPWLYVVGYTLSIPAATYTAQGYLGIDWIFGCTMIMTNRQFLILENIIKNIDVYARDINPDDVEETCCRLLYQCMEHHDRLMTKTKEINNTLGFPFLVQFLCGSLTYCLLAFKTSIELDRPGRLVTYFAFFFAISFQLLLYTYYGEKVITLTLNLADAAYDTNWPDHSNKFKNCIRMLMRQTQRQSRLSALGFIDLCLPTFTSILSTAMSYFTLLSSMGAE
- Sequence (A0A2H4NT96 1-482 partner): as the sequence (A0A2H4NT96 1-482 partner) above
- experiment: Fluorescent calcium assay, HEK293 cells expressing EsemOrco and EsemOR5
measure_name: pEC50
Value format note: pEC50 is -log10 of concentration (mol/L); just state the number.

Name the recorded pEC50 for CC/C=C\CCCC(C)=O [(Z)-6-Nonen-2-one] .
6.37
